Listing: Basolateral Side 90 min of selected compounds
System: Caco-2 cell monolayer
Test: Caco-2 monolayer transport (bioavailability) study, AB and BA directions
Type: in vitro ADME, Homo sapiens
Settings: AB experiment, acceptor side, S2 (22 mg/mL GSE), 90 min
Marks after values point to notes of the source that are not given here.

Here's what some known entries look like.
O=c1c(O[C@@H]2O[C@H](CO)[C@@H](O)[C@H](O)[C@H]2O)c(-c2ccc(O)cc2)oc2cc(O)cc(O)c12 [K3G, kaempferol-3-glucoside]	6.8 ± 0.2 ^c mg/L
COc1cc(-c2[o+]c3cc(O)cc(O)c3cc2O[C@@H]2O[C@H](CO)[C@@H](O)[C@H](O)[C@H]2O)cc(OC)c1O [M3G, malvidin-3-O-glucoside]	0.13 ± 0.01 ^c,d mg/L

Next up:
The measured Basolateral Side 90 min associated with O=C(/C=C/c1ccc(O)c(O)c1)O[C@@H](C(=O)O)[C@@H](O)C(=O)O [CA, caftaric acid] reads 0.07 ± 0.01 ^b,c mg/L

* * *

System: Caco-2 cell monolayer
Experiment: Caco-2 monolayer transport (bioavailability) study, AB and BA directions
Type: in vitro ADME, Homo sapiens
Conditions: AB experiment, donor side, S2 (22 mg/mL GSE), 90 min
Marks after values point to notes of the source that are not given here.
quantity kind: Apical Side 90 min

OC[C@H]1O[C@@H](Oc2cc3c(O)cc(O)cc3[o+]c2-c2cc(O)c(O)c(O)c2)[C@H](O)[C@@H](O)[C@@H]1O [D3G, delphinidin-3-O-glucoside]	4.3 ± 0.1 ^c mg/L
O=c1c(O[C@@H]2O[C@H](CO)[C@@H](O)[C@H](O)[C@H]2O)c(-c2ccc(O)c(O)c2)oc2cc(O)cc(O)c12 [Q3G, quercetin-3-glucoside]	0.47 ± 0.01 ^c mg/L

# next molecule below
Briefly, Apical Side 90 min measured for "COc1cc(C(=O)O)cc(OC)c1O" : 1.03 ± 0.03 ^c mg/L
